Attribution: patent US20220177596A1

systemUnderTest: T1, human-CD40 monomer (human, UniProt P25942 21-193, limits assumed)
T1 construct: also called hCD40-monomer; human-CD40-monomer protein
T1 sequence (P25942 21-193 limits assumed): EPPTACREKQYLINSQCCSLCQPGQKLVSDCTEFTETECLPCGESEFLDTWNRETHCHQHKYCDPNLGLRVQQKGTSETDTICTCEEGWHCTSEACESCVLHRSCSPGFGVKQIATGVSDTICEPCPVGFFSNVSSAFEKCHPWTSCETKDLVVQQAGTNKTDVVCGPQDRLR
experiment: SPR 2 pt screen, Ab on protein A
In plain terms, low Kd, meaning strictly below 10 nM, gives class 1, and everything else gives class 0.

binder | categoryLabel
humanized Y1238 hz9 (hz-HC2 / hz-LC4), IgG1.3f (antibody, V domains shown, IgG1.3f heavy constant, common CL; expression supernatant; also called Sup 9) VH: QVQLVQSGAEVKKPGASVKVSCKASGYAFTNYLIEWVRQAPGQGLEWMGVINPGSGGTNYNEKFKGRVTMTADTSISTAYMELSRLRSDDTAVYYCARSQLGRRFDYWGQGTLVTVSS VL: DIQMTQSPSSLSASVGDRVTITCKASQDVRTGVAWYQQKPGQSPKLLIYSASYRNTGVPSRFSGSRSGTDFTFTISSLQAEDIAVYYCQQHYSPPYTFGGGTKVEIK | class 1
humanized Y1238 hz8 (hz-HC2 / hz-LC3), IgG1.3f (antibody, V domains shown, IgG1.3f heavy constant, common CL; expression supernatant; also called Sup 8) VH: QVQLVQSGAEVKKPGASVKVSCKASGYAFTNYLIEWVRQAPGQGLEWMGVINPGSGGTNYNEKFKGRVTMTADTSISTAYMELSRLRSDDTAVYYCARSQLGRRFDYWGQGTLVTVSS VL: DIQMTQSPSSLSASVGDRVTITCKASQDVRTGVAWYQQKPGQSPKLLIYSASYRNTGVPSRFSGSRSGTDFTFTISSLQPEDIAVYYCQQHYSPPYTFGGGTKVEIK | class 1

Below 10 nM on Kd? Entry humanized Y1238 hz44 (hz-HC9 / hz-LC4), IgG1.3f (antibody, V domains shown, IgG1.3f heavy constant, common CL; expression supernatant; also called Sup 44) VH: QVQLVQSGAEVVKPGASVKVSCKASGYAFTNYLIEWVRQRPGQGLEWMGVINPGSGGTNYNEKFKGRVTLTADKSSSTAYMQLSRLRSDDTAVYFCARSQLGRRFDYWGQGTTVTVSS VL: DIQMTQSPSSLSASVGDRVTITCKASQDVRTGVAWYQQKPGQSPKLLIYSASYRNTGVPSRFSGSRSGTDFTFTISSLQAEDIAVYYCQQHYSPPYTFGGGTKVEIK class 1

Lab note: confirm whether the reported Kd for this binder is below 10 nM, equality not counting. binder: humanized Y1238 hz54 (hz-HC11 / hz-LC4), IgG1.3f (antibody, V domains shown, IgG1.3f heavy constant, common CL; expression supernatant; also called Sup 54) VH: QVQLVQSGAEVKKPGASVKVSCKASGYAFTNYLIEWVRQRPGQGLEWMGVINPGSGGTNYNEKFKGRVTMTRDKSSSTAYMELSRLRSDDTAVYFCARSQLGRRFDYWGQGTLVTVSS VL: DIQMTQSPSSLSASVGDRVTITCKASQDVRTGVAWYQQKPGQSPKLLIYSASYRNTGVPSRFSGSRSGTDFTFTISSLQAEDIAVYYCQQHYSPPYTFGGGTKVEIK class 0
